tested on: M. tuberculosis H37Rv; assay: M. tuberculosis H37Rv MIC assay; assay type: cell-based, Mycobacterium tuberculosis; conditions: Mtb H37Rv, iron-deficient
We begin with a simple list: items and their reported MIC50 –Fe.

// worked examples, MIC50 –Fe included
* Nc1ncnc2c1ncn2[C@@H]1O[C@H](CNS(=O)(=O)c2c[nH]c3ccccc3c2=O)[C@@H](O)[C@H]1O [Compound 2] | >50 µM
* Nc1ncnc2c1ncn2[C@@H]1O[C@H](CNS(=O)(=O)c2coc3c(O)cccc3c2=O)[C@@H](O)[C@H]1O [Compound 4] | >50 µM
* Nc1ncnc2c1ncn2[C@@H]1O[C@H](CNS(=O)(=O)c2noc3ccccc3c2=O)[C@@H](O)[C@H]1O [Compound 3] | >50 µM

Next molecule, please.
Enquiry: Data request, read-out MIC50 –Fe, for Nc1ncnc2c1ncn2[C@@H]1O[C@H](CNS(=O)(=O)c2coc3ccccc3c2=O)[C@@H](O)[C@H]1O [Compound 1]
Return: >50 µM

---

target: MbtA (Mycobacterium tuberculosis, UniProt P71716)
Sequence (P71716 whole entry): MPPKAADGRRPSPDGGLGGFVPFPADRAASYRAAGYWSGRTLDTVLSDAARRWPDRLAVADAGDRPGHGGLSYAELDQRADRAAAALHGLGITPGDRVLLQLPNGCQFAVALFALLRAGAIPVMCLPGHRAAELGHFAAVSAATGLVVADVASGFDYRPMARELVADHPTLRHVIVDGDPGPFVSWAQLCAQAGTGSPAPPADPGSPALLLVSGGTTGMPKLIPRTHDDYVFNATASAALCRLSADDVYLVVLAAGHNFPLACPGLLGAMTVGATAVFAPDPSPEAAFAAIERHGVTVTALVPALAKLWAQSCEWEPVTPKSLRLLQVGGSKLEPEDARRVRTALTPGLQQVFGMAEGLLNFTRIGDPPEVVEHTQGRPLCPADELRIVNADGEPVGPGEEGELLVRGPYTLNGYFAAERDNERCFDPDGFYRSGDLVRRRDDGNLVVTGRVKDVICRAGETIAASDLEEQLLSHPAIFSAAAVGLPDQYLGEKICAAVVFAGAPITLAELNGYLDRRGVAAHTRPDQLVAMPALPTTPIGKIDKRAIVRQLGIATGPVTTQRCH
Property label: Ki
Answer with the value and then the unit.

Enquiry: // query Ki value for entry Nc1ncnc2c1ncn2[C@@H]1O[C@H](CNS(=O)(=O)c2c[nH]c3ccccc3c2=O)[C@@H](O)[C@H]1O [Compound 2]
Return: 120 nM
